The measured values listed here are drawn from ChEMBL document CHEMBL2440051.

- PROCEDURE_TEXT: Inhibition of alpha-glucosidase (unknown origin) using sucrose as substrate assessed as formation of glucose after 30 mins by glucose oxidase method
- Parameters: species or system Homo sapiens
The reader will find reported IC50 values listed item by item below.

CC(=O)O[C@@H]1C(=O)C2=C([C@@H](O)C[C@H]3C(C)(C)[C@@H](O)CC[C@]23C)[C@]2(C)C(=O)C[C@H]([C@H](C)CC(=O)CC(C)C(=O)O)[C@@]12C (stereo not given in full): > 600 µM
CC(CC(=O)C[C@@H](C)[C@H]1CC(=O)[C@@]2(C)C3=C(C(=O)[C@@H](O)[C@]12C)[C@@]1(C)CC[C@H](O)C(C)(C)[C@@H]1C[C@@H]3O)C(=O)O (stereo not given in full): > 600 µM
CC(CC(=O)C[C@@H](C)[C@H]1CC(=O)[C@@]2(C)C3=C(C(=O)C[C@]12C)[C@@]1(C)CCC(=O)C(C)(C)[C@@H]1C[C@@H]3O)C(=O)O (stereo not given in full): > 600 µM

Q: Item under review: CC(CC(=O)C[C@@H](C)[C@H]1CC(=O)[C@@]2(C)C3=C([C@@H](O)C[C@]12C)[C@@]1(C)CCC(=O)C(C)(C)[C@@H]1C[C@@H]3O)C(=O)O (stereo not given in full) . Reported IC50?
A: 219 µM

Q: Now consider CC(CC(=O)C[C@@H](C)[C@H]1C[C@H](O)[C@@]2(C)C3=C(C(=O)C[C@]12C)[C@@]1(C)CCC(=O)C(C)(C)[C@@H]1CC3=O)C(=O)O (stereo not given in full) .
A: > 600 µM

Q: Also need C[C@H](CC(=O)C[C@@H](C)[C@H]1C[C@H](O)[C@@]2(C)C3=C(C(=O)C[C@]12C)[C@@]1(C)CC[C@H](O)C(C)(C)[C@@H]1C[C@@H]3O)C(=O)O , thanks.
A: > 600 µM

----------
- PROCEDURE_TEXT: Inhibition of alpha-glucosidase (unknown origin) using sucrose as substrate assessed as formation of glucose after 30 mins by glucose oxidase method
- Parameters: species or system Homo sapiens
MEASURED_PROPERTY: pIC50
Keep in mind that pIC50 stands for -log10 of concentration in molar terms.

Q: Recorded pIC50 of C/C(=C\C(=O)CC(C)C(=O)O)[C@H]1C[C@H](O)[C@@]2(C)C3=C(C(=O)C[C@]12C)[C@@]1(C)CCC(=O)C(C)(C)[C@@H]1C[C@@H]3O (some centres undefined) [GANODERENIC ACID A] , please.
A: 3.35

Q: // query: C[C@H]1O[C@H](O[C@H]2[C@H](O)[C@@H](O)[C@@H](O[C@H]3[C@H](O)[C@@H](O)C(O)O[C@@H]3CO)O[C@@H]2CO)[C@H](O)[C@@H](O)[C@@H]1N[C@H]1C=C(CO)[C@@H](O)[C@H](O)[C@H]1O (some centres undefined) [ACARBOSE]
A: 3.28
